System: SW-620
PROTOCOL: Cytotoxicity against human SW-620 cells assessed as reduction in cell viability after 72 hrs by MTT assay
Format: functional, cell-based
CONDITION_SET: SW-620, 72 h
Residues, ends and D or L forms follow the SMILES beside them. *: point of attachment. X1 = CC(=O)O[C@@]12CO[C@@H]1C[C@H](O)[C@@]1(C)C(=O)[C@H](O)C3=C(C)[C@@H](OC(=O)[C@H](OC(=O)OCc4ccc(N*)cc4)[C@@H](NC(=O)OC(C)(C)C)c4ccccc4)C[C@@](O)([C@@H](OC(=O)c4ccccc4)[C@H]21)C3(C)C; Fmoc = O=C(OCC1c2ccccc2-c2ccccc21)*
READOUT_LABEL: pIC50
Keep in mind that pIC50 stands for -log10 of concentration in molar terms.

Completed entries (count: 3):
[
  {
    "COMPOUND": "CC(=O)NCC(=O)N1CCC[C@H]1C(=O)N[C@@H](CCC(N)=O)C(=O)NCC(=O)N[C@@H](CC(C)C)C(=O)N[C@@H](C)C(=O)NCC(=O)N[C@@H](CCC(N)=O)C(=O)N[C@@H](CC(C)C)C(=O)Nc1ccc(COC(=O)O[C@@H](C(=O)O[C@H]2C[C@@]3(O)[C@@H](OC(=O)c4ccccc4)[C@@H]4[C@]5(OC(C)=O)CO[C@@H]5C[C@H](O)[C@@]4(C)C(=O)[C@H](O)C(=C2C)C3(C)C)[C@@H](NC(=O)OC(C)(C)C)c2ccccc2)cc1 (Ac-GPQGLAGQL-X1)",
    "pIC50": 4.66
  },
  {
    "COMPOUND": "CC[C@H](C)[C@H](NC(=O)CNC(=O)[C@H](CCSC)NC(=O)[C@@H]1CCCN1C(=O)CNC(C)=O)C(=O)N[C@@H](C)C(=O)NCC(=O)N[C@@H](CCC(N)=O)C(=O)N[C@@H](CC(C)C)C(=O)Nc1ccc(COC(=O)O[C@@H](C(=O)O[C@H]2C[C@@]3(O)[C@@H](OC(=O)c4ccccc4)[C@@H]4[C@]5(OC(C)=O)CO[C@@H]5C[C@H](O)[C@@]4(C)C(=O)[C@H](O)C(=C2C)C3(C)C)[C@@H](NC(=O)OC(C)(C)C)c2ccccc2)cc1 (Ac-GPMGIAGQL-X1)",
    "pIC50": 5.94
  },
  {
    "COMPOUND": "CC[C@H](C)[C@H](NC(=O)CNC(=O)[C@H](CC(C)C)NC(=O)[C@@H]1CCCN1C(=O)CNC(=O)OCC1c2ccccc2-c2ccccc21)C(=O)N[C@@H](C)C(=O)NCC(=O)N[C@@H](CCC(N)=O)C(=O)N[C@@H](CC(C)C)C(=O)Nc1ccc(COC(=O)O[C@@H](C(=O)O[C@H]2C[C@@]3(O)[C@@H](OC(=O)c4ccccc4)[C@@H]4[C@]5(OC(C)=O)CO[C@@H]5C[C@H](O)[C@@]4(C)C(=O)[C@H](O)C(=C2C)C3(C)C)[C@@H](NC(=O)OC(C)(C)C)c2ccccc2)cc1 (Fmoc-GPLGIAGQL-X1)",
    "pIC50": 6.00
  }
]

Query compound follows.
Ask: Fill in pIC50 for record CC[C@H](C)[C@H](NC(=O)CNC(=O)[C@H](CCC(N)=O)NC(=O)[C@@H]1CCCN1C(=O)CNC(C)=O)C(=O)N[C@@H](C)C(=O)N[C@@H](CCSC)C(=O)N[C@@H](CCC(N)=O)C(=O)N[C@@H](CC(C)C)C(=O)Nc1ccc(COC(=O)O[C@@H](C(=O)O[C@H]2C[C@@]3(O)[C@@H](OC(=O)c4ccccc4)[C@@H]4[C@]5(OC(C)=O)CO[C@@H]5C[C@H](O)[C@@]4(C)C(=O)[C@H](O)C(=C2C)C3(C)C)[C@@H](NC(=O)OC(C)(C)C)c2ccccc2)cc1 (Ac-GPQGIAMQL-X1)
Reply: 7.52

====

System: SW-620
PROTOCOL: Cytotoxicity against human SW-620 cells assessed as reduction in cell viability after 72 hrs by MTT assay
Type: functional, cell-based
CONDITION_SET: SW-620, 72 h
Residues, ends and D or L forms follow the SMILES beside them. *: point of attachment. X2 = CC(=O)O[C@@]12CO[C@@H]1C[C@H](O)[C@@]1(C)C(=O)[C@H](O)C3=C(C)[C@@H](OC(=O)[C@H](OC(=O)OCc4ccc(N*)cc4)[C@@H](NC(=O)OC(C)(C)C(F)(F)F)c4ccccc4)C[C@@](O)([C@@H](OC(=O)c4cccc(F)c4)[C@H]21)C3(C)C
READOUT_LABEL: pIC50
Keep in mind that pIC50 stands for -log10 of concentration in molar terms.

Ask: Fill in pIC50 for record CC[C@H](C)[C@H](NC(=O)[C@H](C)NC(=O)[C@H](CCC(N)=O)NC(=O)[C@@H]1CCCN1C(=O)CNC(C)=O)C(=O)N[C@@H](C)C(=O)NCC(=O)N[C@@H](CCC(N)=O)C(=O)N[C@@H](CC(C)C)C(=O)Nc1ccc(COC(=O)O[C@@H](C(=O)O[C@H]2C[C@@]3(O)[C@@H](OC(=O)c4cccc(F)c4)[C@@H]4[C@]5(OC(C)=O)CO[C@@H]5C[C@H](O)[C@@]4(C)C(=O)[C@H](O)C(=C2C)C3(C)C)[C@@H](NC(=O)OC(C)(C)C(F)(F)F)c2ccccc2)cc1 (Ac-GPQAIAGQL-X2)
Reply: 6.19

====

PROTOCOL: Half life of compound in PBS buffer at pH 7.4 at 50 ug/ml up to 72 hrs by RP-HPLC analysis
Type: physicochemical
CONDITION_SET: dose 50 µg/ml
Residues, ends and D or L forms follow the SMILES beside them. *: point of attachment. X2 = CC(=O)O[C@@]12CO[C@@H]1C[C@H](O)[C@@]1(C)C(=O)[C@H](O)C3=C(C)[C@@H](OC(=O)[C@H](OC(=O)OCc4ccc(N*)cc4)[C@@H](NC(=O)OC(C)(C)C(F)(F)F)c4ccccc4)C[C@@](O)([C@@H](OC(=O)c4cccc(F)c4)[C@H]21)C3(C)C; X1 = CC(=O)O[C@@]12CO[C@@H]1C[C@H](O)[C@@]1(C)C(=O)[C@H](O)C3=C(C)[C@@H](OC(=O)[C@H](OC(=O)OCc4ccc(N*)cc4)[C@@H](NC(=O)OC(C)(C)C)c4ccccc4)C[C@@](O)([C@@H](OC(=O)c4ccccc4)[C@H]21)C3(C)C; Fmoc = O=C(OCC1c2ccccc2-c2ccccc21)*
READOUT_LABEL: half-life at 50 ug/ml

[
  {
    "COMPOUND": "CC(=O)NCC(=O)N1CCC[C@H]1C(=O)N[C@@H](CCC(N)=O)C(=O)NCC(=O)N[C@@H](CC(C)C)C(=O)N[C@@H](C)C(=O)NCC(=O)N[C@@H](CCC(N)=O)C(=O)N[C@@H](CC(C)C)C(=O)Nc1ccc(COC(=O)O[C@@H](C(=O)O[C@H]2C[C@@]3(O)[C@@H](OC(=O)c4ccccc4)[C@@H]4[C@]5(OC(C)=O)CO[C@@H]5C[C@H](O)[C@@]4(C)C(=O)[C@H](O)C(=C2C)C3(C)C)[C@@H](NC(=O)OC(C)(C)C)c2ccccc2)cc1 (Ac-GPQGLAGQL-X1)",
    "half-life at 50 ug/ml": "35.1 h"
  },
  {
    "COMPOUND": "CC[C@H](C)[C@H](NC(=O)CNC(=O)[C@H](CCC(N)=O)NC(=O)[C@@H]1CCCN1C(=O)CNC(C)=O)C(=O)N[C@@H](C)C(=O)N[C@@H](CCSC)C(=O)N[C@@H](CCC(N)=O)C(=O)N[C@@H](CC(C)C)C(=O)Nc1ccc(COC(=O)O[C@@H](C(=O)O[C@H]2C[C@@]3(O)[C@@H](OC(=O)c4cccc(F)c4)[C@@H]4[C@]5(OC(C)=O)CO[C@@H]5C[C@H](O)[C@@]4(C)C(=O)[C@H](O)C(=C2C)C3(C)C)[C@@H](NC(=O)OC(C)(C)C(F)(F)F)c2ccccc2)cc1 (Ac-GPQGIAMQL-X2)",
    "half-life at 50 ug/ml": "> 72 h"
  },
  {
    "COMPOUND": "CC[C@H](C)[C@H](NC(=O)CNC(=O)[C@H](CCC(N)=O)NC(=O)[C@@H]1CCCN1C(=O)CNC(C)=O)C(=O)N[C@@H](C)C(=O)N[C@@H](CCSC)C(=O)N[C@@H](CCC(N)=O)C(=O)N[C@@H](CC(C)C)C(=O)Nc1ccc(COC(=O)O[C@@H](C(=O)O[C@H]2C[C@@]3(O)[C@@H](OC(=O)c4ccccc4)[C@@H]4[C@]5(OC(C)=O)CO[C@@H]5C[C@H](O)[C@@]4(C)C(=O)[C@H](O)C(=C2C)C3(C)C)[C@@H](NC(=O)OC(C)(C)C)c2ccccc2)cc1 (Ac-GPQGIAMQL-X1)",
    "half-life at 50 ug/ml": "> 72 h"
  },
  {
    "COMPOUND": "CC[C@H](C)[C@H](NC(=O)[C@H](C)NC(=O)[C@H](CCC(N)=O)NC(=O)[C@@H]1CCCN1C(=O)CNC(C)=O)C(=O)N[C@@H](C)C(=O)NCC(=O)N[C@@H](CCC(N)=O)C(=O)N[C@@H](CC(C)C)C(=O)Nc1ccc(COC(=O)O[C@@H](C(=O)O[C@H]2C[C@@]3(O)[C@@H](OC(=O)c4ccccc4)[C@@H]4[C@]5(OC(C)=O)CO[C@@H]5C[C@H](O)[C@@]4(C)C(=O)[C@H](O)C(=C2C)C3(C)C)[C@@H](NC(=O)OC(C)(C)C)c2ccccc2)cc1 (Ac-GPQAIAGQL-X1)",
    "half-life at 50 ug/ml": "> 72 h"
  }
]

Query compound follows.
Ask: Fill in half-life at 50 ug/ml for record CC[C@H](C)[C@H](NC(=O)CNC(=O)[C@H](CC(C)C)NC(=O)[C@@H]1CCCN1C(=O)CNC(=O)OCC1c2ccccc2-c2ccccc21)C(=O)N[C@@H](C)C(=O)NCC(=O)N[C@@H](CCC(N)=O)C(=O)N[C@@H](CC(C)C)C(=O)Nc1ccc(COC(=O)O[C@@H](C(=O)O[C@H]2C[C@@]3(O)[C@@H](OC(=O)c4ccccc4)[C@@H]4[C@]5(OC(C)=O)CO[C@@H]5C[C@H](O)[C@@]4(C)C(=O)[C@H](O)C(=C2C)C3(C)C)[C@@H](NC(=O)OC(C)(C)C)c2ccccc2)cc1 (Fmoc-GPLGIAGQL-X1)
Reply: > 72 h
